src = the RNAGym collection of RNA variant scans (doi:10.1021/acssynbio.7b00057)

B1: Pistol ribozyme (parent)
chain: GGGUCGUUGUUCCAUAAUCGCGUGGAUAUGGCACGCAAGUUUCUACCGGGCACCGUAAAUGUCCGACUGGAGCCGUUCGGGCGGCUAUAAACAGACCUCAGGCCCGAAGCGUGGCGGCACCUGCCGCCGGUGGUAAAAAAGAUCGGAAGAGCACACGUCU

Variants of: B1
Experiment: aptazyme ON/OFF ratio, guanine; higher = stronger switching; co-transcriptional cleavage with and without guanine
quantity.kind: aptazyme ON/OFF ratio
Write the value as a bare number.

INSERT INTO assay_data (mutant_id, quantity_kind, number) VALUES
  ('U7G G9C U10C U11G C12U C13G', 'aptazyme ON/OFF ratio', 1.26),
  ('U8A C12G C13U', 'aptazyme ON/OFF ratio', 1.24);

Indicate its recorded aptazyme ON/OFF ratio; the variant in question is U8C G9A U10A U11G C12U C13G
1.18

Indicate its recorded aptazyme ON/OFF ratio; the variant in question is U7A U8C G9C U10G U11G C12A C13A
1.15

Indicate its recorded aptazyme ON/OFF ratio; the variant in question is U7A U8A G9U U10C U11G C13A
1.1

Indicate its recorded aptazyme ON/OFF ratio; the variant in question is U7A U8C G9A U10A U11G C13A
1.12

Indicate its recorded aptazyme ON/OFF ratio; the variant in question is U7A U8A U10A C12G
1.26
